System: SW-620 colon
measurementDescription: NCI-60 one-dose screen, 48 h (100 = growth as untreated, 0 = no growth, -100 = all killed)
conditionDetails: 10 µM unless noted
Experimental: Growth inhibition of the SW-620 human tumor cell line is measured as a screen for anti-cancer activity. Cells are grown in 96 well plates and exposed to the test compound for 48 hours. Compounds are tested at a single concentration, which is 10^-5 M for most compounds. The reported endpoint is percent growth (GI% or GIPRCNT), where numbers from 0 - 100% represent growth inhibition, and numbers from -100% - 0 represent cell death. For example, a value of 40 represents 60% growth inhibition. […]
About 83,000 compounds went through this panel and 20% of them were active in at least one assay; those are over-represented in the sample as a whole.
TRUE if growth is below 90%. FALSE if not; exact matches included in FALSE.

{"compound": "N#C/C(=C\\c1ccc(-c2ccc(Br)cc2)o1)c1nc(-c2cccs2)cs1", "assignedCategory": "FALSE"}
{"compound": "O=C(O)c1cccc2c1Cc1cc([N+](=O)[O-])ccc1-2", "assignedCategory": "FALSE"}
{"compound": "C=C(C)[C@@H]1CC[C@]2(C(=O)NNC(=O)c3cccnc3)CC[C@]3(C)[C@H](CC[C@@H]4[C@@]5(C)CCCNC(C)(C)[C@@H]5CC[C@]43C)[C@@H]12", "assignedCategory": "TRUE"}
{"compound": "Cc1cccc(C)c1NC(=O)CSC(=S)N1CCN(CCOCCO)CC1", "assignedCategory": "FALSE"}
{"compound": "CC(=O)NC1=C(C#N)C(c2ccccc2Cl)c2c(ccc3ccccc23)O1 (centres undefined)", "assignedCategory": "TRUE"}
{"compound": "CC(=O)n1c(/C(C#N)=C/c2ccc(N(C)C)cc2)cc2ccccc21", "assignedCategory": "TRUE"}
{"compound": "N#Cc1c(-c2ccc(O)cc2)c2c(N)nn(-c3ccccc3)c2[nH]c1=O", "assignedCategory": "FALSE"}
{"compound": "C[C@@H](Oc1ccc(C(=O)NS(=O)(=O)C(C)(C)C)cc1C(F)(F)F)c1ccc(Oc2ccccc2)cn1", "assignedCategory": "TRUE"}
{"compound": "Cn1cnc2c1c(=O)n(CCC(=O)Nc1ccc(F)cc1)c(=O)n2C", "assignedCategory": "FALSE"}
